assay: PK analysis in rats; format: in vivo; settings: male, Sprague-Dawley, rat, plasma, po, 100 mg/kg
Value Kind: AUC (ng·h/mL)

| Compound | Value Observed |
| --- | --- |
| C=C(c1ccc(C(=O)O)cc1)c1cc2c(cc1C)C(C)(C)CCC2(C)C [Compound 1, bexarotene] | 51500 |

* * *

assay: Water solubility by UV-vis; conditions: deionized water, 20 °C, thermodynamic from solid
Value Kind: solubility at 24 h (µM)

| Molecule | Readout Units | Value Observed |
| --- | --- | --- |
| C=C(c1ccc(C(=O)O)cc1)c1cc2c(cc1C)C(C)(C)CCC2(C)C [Compound 1, bexarotene] | µM | 0.28 |

* * *

test: PK analysis in rats; assay type: in vivo; settings: male, Sprague-Dawley, rat, plasma, po, 100 mg/kg

| Compound | AUC(0-t) [ng·h/mL] |
| --- | --- |
| C=C(c1ccc(C(=O)O)cc1)c1cc2c(cc1C)C(C)(C)CCC2(C)C [Compound 1, bexarotene] | 51500 |
